Target: Cholecystokinin receptor (Mus musculus) (UniProt O08786+P56481)
Assay: Ratio of IC50(gastrin) to IC50(CCK-A)
Format: protein assay
Parameter measured: Ratio

Observe how each entry below is paired with its result.
- Cc1cccc(NC(=O)NC2N=C(c3cccc(OCC(=O)NCCCC(=O)NCCCOc4cccc(CN5CCCCC5)c4)c3)c3ccccc3N(C)C2=O)c1 (stereo unspecified): 157
- CN1C(=O)[C@H](NC(=O)Nc2cccc(CC(=O)NCCC(=O)NCCCOc3cccc(CN4CCCCC4)c3)c2)N=C(c2ccccc2)c2ccccc21: 1.4
- Cc1cccc(NC(=O)NC2N=C(c3cccc(OCC(=O)NCC(=O)NCCCOc4cccc(CN5CCCCC5)c4)c3)c3ccccc3N(C)C2=O)c1 (stereo unspecified): 82.5

a. Cc1cccc(NC(=O)NC2N=C(c3cccc(OCC(=O)NCCCC(=O)NCCSCc4csc(N=C(N)N)n4)c3)c3ccccc3N(C)C2=O)c1 (stereo unspecified)
b. Cc1cccc(NC(=O)NC2N=C(c3cccc(OCC(=O)NCCC(=O)NCCSCc4csc(N=C(N)N)n4)c3)c3ccccc3N(C)C2=O)c1 (stereo unspecified)
c. CN1C(=O)[C@H](NC(=O)Nc2cccc(CC(=O)NCCCCCC(=O)NCCSCc3csc(N=C(N)N)n3)c2)N=C(c2ccccc2)c2ccccc21
### Prompt Arrange the 3 molecules from largest to smallest Ratio. Your answer should be the labels, listed in the requested order.
### Response a, b, c
(a: 150, b: 80, c: 4.2)

----------
Target: Cholecystokinin receptor (Mus musculus) (UniProt O08786+P56481)
Assay: Ratio of IC50(gastrin) to IC50(CCK-A)
Type: protein assay
Parameter measured: Ratio

Observe how each entry below is paired with its result.
• Cc1cccc(NC(=O)NC2N=C(c3ccccc3)c3ccccc3N(CC(=O)NCCC(=O)NCCSCc3csc(N=C(N)N)n3)C2=O)c1 (configuration not stated) = 5.2
• CN1C(=O)[C@H](NC(=O)Nc2cccc(C(=O)NCCCOc3cccc(CN4CCCCC4)c3)c2)N=C(c2ccccc2)c2ccccc21 = 4.5
• CN1C(=O)[C@H](NC(=O)Nc2cccc(CC(=O)NCCCC(=O)NCCCOc3cccc(CN4CCCCC4)c3)c2)N=C(c2ccccc2)c2ccccc21 = 2.9

A. CN1C(=O)[C@H](NC(=O)Nc2cccc(CC(=O)NCCCC(=O)NCCSCc3csc(N=C(N)N)n3)c2)N=C(c2ccccc2)c2ccccc21
B. Cc1cccc(NC(=O)NC2N=C(c3ccccc3)c3ccccc3N(CC(=O)NCCCC(=O)NCCSCc3csc(N=C(N)N)n3)C2=O)c1 (configuration not stated)
C. Cc1cccc(NC(=O)NC2N=C(c3cccc(OCC(=O)NCC(=O)NCCSCc4csc(N=C(N)N)n4)c3)c3ccccc3N(C)C2=O)c1 (configuration not stated)
### Prompt Arrange the 3 compounds from largest to smallest Ratio. Your answer should be the labels, listed in the requested order.
### Response C, B, A
(C: 90.8, B: 3.8, A: 1.4)

----------
Molecular target: Histamine H2 receptor (Rattus norvegicus, UniProt P25102)
Sequence (P25102 whole entry): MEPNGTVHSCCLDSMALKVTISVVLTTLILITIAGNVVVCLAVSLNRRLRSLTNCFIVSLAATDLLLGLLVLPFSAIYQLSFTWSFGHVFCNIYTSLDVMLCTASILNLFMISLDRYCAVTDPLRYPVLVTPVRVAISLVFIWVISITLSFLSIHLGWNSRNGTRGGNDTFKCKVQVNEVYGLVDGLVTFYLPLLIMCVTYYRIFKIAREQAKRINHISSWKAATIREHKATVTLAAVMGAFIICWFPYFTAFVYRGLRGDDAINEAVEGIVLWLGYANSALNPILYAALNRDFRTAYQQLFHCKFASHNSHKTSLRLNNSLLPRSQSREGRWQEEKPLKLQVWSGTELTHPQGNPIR
Experiment: Antagonistic activity for inhibition of histamine H2 receptor from anesthetized rats
Type: functional
Settings: read-out: pA2 (converted)
Parameter measured: Kb (nM)

Observe how each entry below is paired with its result.
* Cc1cccc(NC(=O)NC2N=C(c3ccccc3)c3ccccc3N(CC(=O)NCCCC(=O)NCCSCc3csc(N=C(N)N)n3)C2=O)c1 (configuration not stated) | 3160
* Cc1cccc(NC(=O)NC2N=C(c3cccc(OCC(=O)NCCCOc4cccc(CN5CCCCC5)c4)c3)c3ccccc3N(C)C2=O)c1 (configuration not stated) | 5010
* Cc1cccc(NC(=O)NC2N=C(c3cccc(OCC(=O)NCC(=O)NCCSCc4csc(N=C(N)N)n4)c3)c3ccccc3N(C)C2=O)c1 (configuration not stated) | 1000
* CN1C(=O)[C@H](NC(=O)Nc2cccc(CC(=O)NCCCCCC(=O)NCCCOc3cccc(CN4CCCCC4)c3)c2)N=C(c2ccccc2)c2ccccc21 | 631

1. CN1C(=O)[C@H](NC(=O)Nc2cccc(CC(=O)NCCCC(=O)NCCCOc3cccc(CN4CCCCC4)c3)c2)N=C(c2ccccc2)c2ccccc21
2. CN1C(=O)[C@H](NC(=O)Nc2cccc(CC(=O)NCCC(=O)NCCCOc3cccc(CN4CCCCC4)c3)c2)N=C(c2ccccc2)c2ccccc21
### Prompt Just curious, which one has the larger Kb reading, 1 or 2 ? Answer format: the label of the selected item.
### Response 1
(1: 398 nM, 2: 251 nM)
